test system: MCF-7 (ER+, Her2−) human breast cancer cells; experiment: MTT cell viability assay, MCF-7 cells; type: cell-based; settings: MCF7, 24 h, read-out: IC50 on cell viability, MCF-7 (ER+, Her2−)
measurement-type: pIC50
Remember the convention: pIC50 equals -log10 of concentration in molar.

[[record]]
compound = "C=C1C(=O)OC2CC3=C[C@@H](C/C(C)=C/C(OC(=O)C(C)CC)[C@H]12)OC3=O (some centres unmarked)"
measurement_type = "pIC50"
numeric_readout = 5.43

[[record]]
compound = "C=C1C(=O)OC2CC3=C[C@@H](C/C(C)=C/C(OC(=O)C4CCCC4)[C@H]12)OC3=O (some centres unmarked)"
measurement_type = "pIC50"
numeric_readout = 5.21

[[record]]
compound = "C=C1C(=O)OC2CC3=C[C@@H](C/C(C)=C/[C@@H](OC(=O)/C=C/c4ccc5c(c4)OCO5)[C@H]12)OC3=O (some centres unmarked)"
measurement_type = "pIC50"
numeric_readout = 5.44

[[record]]
compound = "C=C1C(=O)OC2CC3=C[C@@H](C/C(C)=C/C(OC(=O)/C=C(\\C)C(C)C)[C@H]12)OC3=O (some centres unmarked)"
measurement_type = "pIC50"
numeric_readout = 5.38

[[record]]
compound = "C=C1C(=O)OC2CC3=C[C@@H](C/C(C)=C/C(OC(=O)/C=C/c4ccco4)[C@H]12)OC3=O (some centres unmarked)"
measurement_type = "pIC50"
numeric_readout = 5.39


Query block: Let me know recorded pIC50 for C=C1C(=O)OC2CC3=C[C@@H](C/C(C)=C/[C@@H](OC(=O)/C=C/c4ccc(OCC)cc4)[C@H]12)OC3=O (some centres unmarked) , thanks.
Result block: 5.48

Query block: Give the value of pIC50 reported for the following: C=C1C(=O)OC2CC3=C[C@@H](C/C(C)=C/C(OC(=O)/C=C/c4ccc(Cl)cc4)[C@H]12)OC3=O (some centres unmarked)
Result block: 5.44
